- tested-target: zif268 DBD E21N (RN) (UniProt P08046 331-420, E352N)
- protocol-text: competition EMSA (QuMFRA); 30 mM Tris-HCl pH 8.0, 50 mM NaCl, 0.1 mg/ml BSA, 3 mM DTT, 20 uM ZnSO4, 5 ug/ml poly(dI-dC), 1 h on ice; 10% polyacrylamide gel
metric-name: binding signal

Ask | Fill in: binding signal of Zif_2 (CA) (dsDNA) DNA 1: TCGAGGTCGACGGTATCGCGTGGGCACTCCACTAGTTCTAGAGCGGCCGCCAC DNA 2: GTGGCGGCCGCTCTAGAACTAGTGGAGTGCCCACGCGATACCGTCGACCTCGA is ___
Reply | 0.36 Ka relative to CG

Ask | Fill in: binding signal of Zif_3 (CC) (dsDNA) DNA 1: TCGAGGTCGACGGTATCGCGTGGGCCCTCCACTAGTTCTAGAGCGGCCGCCAC DNA 2: GTGGCGGCCGCTCTAGAACTAGTGGAGGGCCCACGCGATACCGTCGACCTCGA is ___
Reply | 0.41 Ka relative to CG
